system: SARS-CoV-2 (USA_WA1/2020); assay: microbe, parasite or virus in culture; type: cell-based; conditions: Severe acute respiratory syndrome coronavirus 2, Vero C1008; SARS-CoV-2 CPE assay, Vero E6 cells; efficacy; read-out: CPE % Efficacy
Structures can show the parent of a compound that is named as a salt.
value type: Emax (%)
One number for each entry, in %.

molecule | tested system | units | Emax
COCCN1CCN(Cc2ccc(-c3n[nH]c4c3C(=O)c3c(NC(=O)NN5CCOCC5)cccc3-4)cc2)CC1 | SARS-CoV-2 (USA_WA1/2020) | % | 111

Go through the items and report each one's Emax.
1. CC1(C)CC(=O)c2c(C(F)(F)F)nn(-c3ccc(C(N)=O)c(N[C@H]4CC[C@H](OC(=O)CN)CC4)c3)c2C1
2. Nc1nc(Nc2ccc3c(c2)CC[C@@H](N2CCCC2)CC3)nn1-c1cc2c(nn1)-c1ccccc1CCC2
3. CN(C)CCCN1c2ccccc2Sc2ccccc21 [Promazine hydrochloride]

Out:
1. 33.8
2. 69.6
3. 55.8

----------
experiment: in vitro; conditions: African green monkey
Where a name gives a salt, the structure may show the parent alone.
value type: cytotoxicity

Hey, quick one: what's cytotoxicity for each of these?
1. CCCCc1oc2ccccc2c1C(=O)c1cc(I)c(OCCN(CC)CC)c(I)c1 [Amiodarone hydrochloride, reference compound]
2. CN1CCC[C@@H]1CCO[C@](C)(c1ccccc1)c1ccc(Cl)cc1 [Clemastine fumarate, reference compound]
3. CCCCCCC(C)(C)c1cc(O)c2c(c1)OC(C)(C)[C@H]1CC=C(CO)C[C@H]21 [Dexanabinol, reference compound]

Out:
1: < 30%; 2: < 30%; 3: < 30%

----------
test system: Vero E6 cells; settings: cytotoxicity counter-assay, Vero E6 cells without virus
value type: % Cytotox
Answer shape: numeric part, then the unit.

molecule | result
O=C1NC(=O)/C(=C/c2cccc(C(F)(F)F)c2)S1 [SMI-4a] | 29.5%
CCC(C)CNCC(=O)N1CCc2sccc2C1COc1cccc(C)c1.Cl (centres unmarked) [RU-SKI 43 (hydrochloride)] | 21.4%
CCCCNc1ncc2c(-c3ccc(F)cc3)nn(CC3CCC(N)CC3)c2n1 (centres unmarked) [UNC-569] | 34.2%
CNC(=O)c1ccc2c(C(=Nc3cccc(CN(C)C)c3)c3ccccc3)c(O)[nH]c2c1 [NCGC00346543] | 22.6%
CC(C)c1cnn2c(NCc3ccccc3)cc(NCCCCCCN)nc12 [BS-181] | 32.0%

For every item in the list below, what is its measured % Cytotox?
1. CCC(C)C(=O)OC1CC(O)C23C4OCC5(C(O)CC2C1(C)C(O)O4)C3C(=O)CC1(C)C(c2ccoc2)CC2OC215 (centres unmarked) [NCGC00381227]
2. O=S(=O)(c1cccc2c(Cl)cccc12)N1CCCNCC1 [ML-9]
3. COc1cc2nc(N3CCC(N4CCCCC4)CC3)nc(NC3CCCCCC3)c2cc1OC.Cl.Cl [C 021 dihydrochloride]
4. Cc1ccc(-c2c(C(=O)CCl)n(CCCO)c3ncnc(N)c23)cc1 [CMK]
5. COc1ccc2c(c1)c(CCN(C)C)cn2S(=O)(=O)c1ccccc1.O=C(O)C(=O)O [MS 245 oxalate]

Out:
1: 53.1%; 2: 23.3%; 3: 108.9%; 4: 15.2%; 5: 20.5%

Please go through the list and note % Cytotox for each molecule.
1. O=S(=O)(NCC1CC1)c1ccc(Nc2nccc(N3CCCc4cc(O)ccc43)n2)cc1 [Pyrintegrin]
2. C=C1C(=O)O[C@H]2C3=C(C)CCC[C@]3(C)C(=O)C[C@@H]12 [NCGC00168931]
3. NC(=O)c1ccccc1Nc1ccnc(Nc2cccc(O)c2)n1 [DB-07268]

Out:
1. 70.3%
2. 69.6%
3. 40.9%

In: Could you tell me which % Cytotox is on file for CC(=O)O[C@@H]1C[C@H]2C(C)(C)C(=O)C=C[C@]2(C)[C@H]2CC[C@]3(C)C(=CC(=O)O[C@H]3c3ccoc3)[C@@]21C [DEOXYGEDUNIN] ?
Out: 0.0%
